MEASUREMENT TARGET: TadNaC6 (Trichoplax adhaerens, UniProt A0A5J6BVG3)
Construct: full-length untagged channel from pTadNaC6-IR-EGFP (pIRES2-EGFP, EGFP expressed separately) in CHO-K1 cells; functional homomer, trimer by homology; cloning primers encode N-terminus MMAKGKIDH and C-terminus ADATNPDM-stop
Sequence (A0A5J6BVG3 1-492): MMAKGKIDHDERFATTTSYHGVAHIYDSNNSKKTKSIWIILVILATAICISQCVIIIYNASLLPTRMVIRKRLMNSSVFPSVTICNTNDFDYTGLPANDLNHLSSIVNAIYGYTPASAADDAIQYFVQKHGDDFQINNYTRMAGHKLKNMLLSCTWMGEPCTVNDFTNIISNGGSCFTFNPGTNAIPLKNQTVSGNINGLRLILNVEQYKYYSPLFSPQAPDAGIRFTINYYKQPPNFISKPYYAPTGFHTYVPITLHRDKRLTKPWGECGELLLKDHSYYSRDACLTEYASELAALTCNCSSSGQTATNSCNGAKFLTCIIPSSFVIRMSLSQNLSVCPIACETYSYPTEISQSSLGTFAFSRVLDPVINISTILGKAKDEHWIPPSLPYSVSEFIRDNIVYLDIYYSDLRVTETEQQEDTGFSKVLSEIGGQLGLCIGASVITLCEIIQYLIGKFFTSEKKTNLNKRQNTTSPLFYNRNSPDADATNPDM
EXPERIMENT NOTES: whole-cell patch clamp, CHO-K1 cells
QUANTITY MEASURED: IC50 (µM)
Number only, in µM; omit the unit.

# input Look at this compound and give its reported IC50. N=C(N)c1ccc(/N=N/Nc2ccc(C(=N)N)cc2)cc1 [diminazene]
# output 578
